Experiment: protein stability index of a GFP-peptide fusion (GPS, HEK-293T) (PSI 1-6); higher = more stable;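 also: 24-mer peptide tiles fused after GFP, lentivirally expressed, FACS-sorted into six equal bins by GFP/DsRed ratio, decoded by Illumina sequencing, PSI is the read-weighted mean bin number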
Conditions: treatment: DMSO; c terminus: a fixed tail appended

sequenceData | protein stability index
LQYSTQVHTEFTLRNFNSAKDMKK [MATN2] | 3.73
GRCELARVLHDFGLDGYRGYSLAD [SPACA3] | 2.62
LSMNWAIVADILLYVVIPTRRSTA [SPNS1] | 2.63
DSGVGASLTRSNRHRLRWHSFQSS [DLC1] | 3.03
ASHTVGFTPPTSLTRAGMSYYNSP [CCDC6] | 2.82
IWDALDWTMQAYERNFWDPSPQLD [WDR41] | 2.2
LSPSRGVAQCLRDLVAMQWADAAG [ZSWIM9] | 2.7
RYFIADLPHLQDSFVDKLLDLMPR [INTS4] | 2.16
LSPKKTWEGFIGGFFSTVVFGFIA [CDS1] | 2.28
MNPYKIDIGAVYSHRPNQHNTVKL [PRIM1] | 2.79
PVALLLAQHKDRSTQLEMQLEKPK [MNAT1] | 3.84
NESALVKEKELSIELANIRDEVAF [MTUS2] | 4.42
VASVGNSRPTGQQLESLGLLAPGE [KISS1] | 4.44
